Biological target: human Retinoid X Receptor beta (RXRb), RXRB (gene 6257) (UniProt P28702)
Sequence (P28702 whole entry, looked up): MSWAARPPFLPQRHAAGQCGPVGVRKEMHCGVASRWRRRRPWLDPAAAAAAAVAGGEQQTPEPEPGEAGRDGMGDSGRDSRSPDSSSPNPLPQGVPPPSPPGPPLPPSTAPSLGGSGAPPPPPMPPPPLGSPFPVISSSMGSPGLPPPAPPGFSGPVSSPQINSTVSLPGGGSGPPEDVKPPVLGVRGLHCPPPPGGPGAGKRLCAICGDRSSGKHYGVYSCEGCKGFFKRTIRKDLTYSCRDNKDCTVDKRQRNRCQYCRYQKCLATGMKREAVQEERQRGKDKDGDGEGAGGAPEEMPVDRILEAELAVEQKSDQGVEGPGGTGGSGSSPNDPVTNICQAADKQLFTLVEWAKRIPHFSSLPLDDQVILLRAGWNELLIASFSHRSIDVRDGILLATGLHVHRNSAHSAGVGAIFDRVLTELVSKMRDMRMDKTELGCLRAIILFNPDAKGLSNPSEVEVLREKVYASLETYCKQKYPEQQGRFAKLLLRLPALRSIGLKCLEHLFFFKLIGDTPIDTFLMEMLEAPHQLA
Test: ATG_RXRb_TRANS: Attagene TRANS-FACTORIAL HepG2 Assay for human Retinoid X Receptor beta (RXRb) (AID 2283013)
Records with an inconclusive call do not appear. Calls of active or inactive are those of the source. How the source made its calls: active means hit-call score of the fitted dose curve at least 0.9, where 1 is the maximum; inconclusive means response in the unintended direction; inactive means score below 0.9.
Mark one answer only. Choices: active, inactive

QUERY: Recorded test outcome, item COc1ccc(C(=O)Nc2nc3ccccc3c(NCc3ccccc3)c2C#N)cc1
RESULT: inactive

QUERY: For CC(=O)O[C@]1(C(C)=O)CC[C@H]2[C@@H]3C=C(Cl)C4=CC(=O)[C@@H]5C[C@@H]5[C@]4(C)[C@H]3CC[C@@]21C then?
RESULT: inactive

QUERY: Quick one: O=C(O)CN(CC(=O)O)CC(=O)O
RESULT: inactive

QUERY: Try the compound O=C(O)c1cccnc1
RESULT: inactive

QUERY: Note, next up: NC=O
RESULT: inactive

QUERY: Next record, please: CC(C)OC(=O)C(C)(C)Oc1ccc(C(=O)c2ccc(Cl)cc2)cc1
RESULT: active

QUERY: Try the compound CC(=O)[C@@]1(O)CC[C@H]2[C@@H]3CCC4=CC(=O)CC[C@]4(C)[C@H]3CC[C@@]21C
RESULT: inactive

###

Read-out: Interferon-gamma inducible Protein 10 (IP10), CXCL10 (gene 3627)
Assay: BSK_hDFCGF_IP10: BioMAP Diversity Plus: hDFCGF Assay for Interferon-gamma inducible Protein 10 (IP10) Biomarker Activity (AID 2283053)
Conditions: primary human foreskin fibroblasts; actives raise or lower the signal
Calls of active or inactive are those of the source. The calls were made as follows: active = hit-call score of the fitted dose curve at least 0.9, where 1 is the maximum; inactive = score below 0.9.
OBSERVED_PROPERTY: AC50

The cases that follow already have their AC50 on record.
QUERY: Tell me the measured AC50 of Oc1ccc(O)cc1 , please.
RESULT: 20.6 µM (active)

QUERY: Then this molecule: O=C1O[C@H]([C@H](O)CO)C(O)=C1O
RESULT: inactive

QUERY: Can you check O=C(N[C@@H](c1ccccc1)[C@@H]1CCCCN1)c1cccc(C(F)(F)F)c1Cl next?
RESULT: 10.5 µM (active)

QUERY: Please answer likewise for N[C@@H](Cc1c[nH]c2ccccc12)C(=O)O
RESULT: inactive

QUERY: Okay, and Cn1cnc2c1c(=O)[nH]c(=O)n2C ?
RESULT: inactive

QUERY: Next molecule: OCC(O)CO
RESULT: inactive

QUERY: Proceed to CC(=O)S[C@H](C(=O)N[C@H]1Cc2ccccc2[C@H]2CCC[C@@H](C(=O)O)N2C1=O)C(C)C
RESULT: inactive

QUERY: And for CCC(C)N(C)C(=O)c1cc2ccccc2c(-c2ccccc2Cl)n1 (configuration not stated) ?
RESULT: inactive

Continuing:
QUERY: Reported AC50, molecule CCCCC(CC)CO (configuration not stated) : ____
RESULT: inactive

QUERY: Now give it for Cc1c(C)c2c(c(C)c1O)CCC(C)(COc1ccc(CC3SC(=O)NC3=O)cc1)O2 (configuration not stated) too.
RESULT: 9.98 µM (active)

QUERY: Now give it for CC(C)c1cccc(C(C)C)c1 too.
RESULT: inactive

QUERY: For CC(C)OC(=O)C(C)(C)Oc1ccc(C(=O)c2ccc(Cl)cc2)cc1 then?
RESULT: 12.9 µM (active)

###

Molecular target: Bile acid receptor (Homo sapiens) (UniProt Q96RI1)
Sequence (Q96RI1 whole entry, looked up): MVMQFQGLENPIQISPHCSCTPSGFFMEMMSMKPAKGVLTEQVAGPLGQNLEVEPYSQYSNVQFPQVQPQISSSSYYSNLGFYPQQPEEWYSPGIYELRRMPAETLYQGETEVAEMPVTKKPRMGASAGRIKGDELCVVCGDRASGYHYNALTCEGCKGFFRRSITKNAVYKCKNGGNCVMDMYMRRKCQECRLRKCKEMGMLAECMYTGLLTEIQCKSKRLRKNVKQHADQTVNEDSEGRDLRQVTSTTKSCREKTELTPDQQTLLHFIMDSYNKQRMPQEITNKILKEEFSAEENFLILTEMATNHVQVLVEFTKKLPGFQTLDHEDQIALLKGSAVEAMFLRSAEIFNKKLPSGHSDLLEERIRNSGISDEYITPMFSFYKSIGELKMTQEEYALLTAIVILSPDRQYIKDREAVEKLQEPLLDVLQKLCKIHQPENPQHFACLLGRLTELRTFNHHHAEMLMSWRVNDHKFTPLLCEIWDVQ
Assay: OT_FXR_FXRSRC1_1440: Odyssey Thera (OT) 24-hour HEK293T Protein-Complementation Assay for Farnesoid X receptor/SRC-1 Co-activator (AID 2283384)
Records with an inconclusive call do not appear. The source made the active and inactive calls. The calls were made as follows: active = hit-call score of the fitted dose curve at least 0.9, where 1 is the maximum; inconclusive = response in the unintended direction; inactive = score below 0.9.
The categories you may choose from are active, inactive

Field: example entries. Status: answers known.
QUERY: What call does the record list for NC(=Nc1ccccc1)Nc1ccccc1 ?
RESULT: inactive

QUERY: # repeat for CCCCc1nc2cccnc2n1Cc1ccc(-c2ccccc2-c2nnn[nH]2)cc1
RESULT: active

QUERY: Queued: Cc1ccc(C(C)(C)C)c(O)c1
RESULT: active

QUERY: Repeat with CCCCC(CC)COP(=O)(OCC(CC)CCCC)OCC(CC)CCCC (stereo unspecified)
RESULT: active

***
QUERY: What classification did O=C1c2c(O)cccc2Cc2cccc(O)c21 end up with in this test?
RESULT: inactive

QUERY: Record: CN(C)CCCN(C)CCCN(C)C
RESULT: inactive

QUERY: Also CN(C)C(=O)NC1(c2ccccc2)CCN(CCC[C@]2(c3ccc(Cl)c(Cl)c3)CCCN(C(=O)c3ccccc3)C2)CC1 , if possible.
RESULT: inactive

###

Read-out: CYP2E1 (gene 1571)
Test: LTEA_HepaRG_CYP2E1: Life Technologies and Expression Analysis (LTEA) Assay for CYP2E1 using HepaRG (AID 2283485)
Settings: mRNA level, 48 h; actives raise or lower the signal
Activity calls are given as the source filed them. Rule for the calls: active = hit-call score of the fitted dose curve at least 0.9, where 1 is the maximum; inactive = score below 0.9.
Please reply with one of these outcomes: active, inactive

QUERY: Dear all, I need the recorded test outcome for CCOCCOCCO , thank you.
RESULT: inactive

Please find the next molecule below.
QUERY: Hey, what did the test say about CCCCC(CC)COC(=O)CCCCCCCC(=O)OCC(CC)CCCC (configuration not stated) ?
RESULT: inactive

###

Read-out: Vascular cell adhesion molecule 1 (VCAM1), VCAM1 (gene 7412)
Experiment: BSK_hDFCGF_VCAM1: BioMAP Diversity Plus: hDFCGF Assay for Vascular cell adhesion molecule 1 (VCAM1) Biomarker Activity (AID 2283065)
Details: primary human foreskin fibroblasts; actives raise or lower the signal
Calls of active or inactive are those of the source. The calls were made as follows: active = hit-call score of the fitted dose curve at least 0.9, where 1 is the maximum; inactive = score below 0.9.
Outcomes you can answer with include only these: y for active, n for inactive

Before answering, review these 5 worked examples.
QUERY: Answer briefly: the call reported for OCC(CO)n1cnc(-c2ccc(F)cc2)c1-c1ccnc(Oc2ccccc2)n1 in this assay.
RESULT: y

QUERY: And then CCCC(=O)O , what is it?
RESULT: n

QUERY: Also O=C(Oc1ccccc1)c1cccc(C(=O)Oc2ccccc2)c1 , if possible.
RESULT: n

QUERY: Again, but for NC(=Nc1ccccc1)Nc1ccccc1
RESULT: n

QUERY: Further, for Oc1ccc(O)cc1 ?
RESULT: y

Others:
QUERY: I'd appreciate the recorded outcome for CCC(C)N(C)C(=O)c1cc2ccccc2c(-c2ccccc2Cl)n1 (stereo not drawn) from this test.
RESULT: n

QUERY: Same for NCCOCCOCCN
RESULT: n

QUERY: Thanks! And CCCCCCCCCC[N+](C)(C)[O-] ?
RESULT: n

QUERY: Try this molecule too: CS(=O)(=O)c1ccc([C@@H](C[C@H]2CCC(=O)C2)C(=O)Nc2cnccn2)cc1Cl
RESULT: n

QUERY: Also COC(=O)CCCC(=O)OC , if possible.
RESULT: n

QUERY: Repeat for the following molecule: Cc1cn([C@H]2C=C[C@@H](CO)O2)c(=O)[nH]c1=O
RESULT: n

QUERY: One more molecule: CC(C)COC(=O)CCCCC(=O)OCC(C)C
RESULT: n

QUERY: How about this molecule: Cn1cnc2c1c(=O)[nH]c(=O)n2C
RESULT: n

###

Read-out: Collagen III, COL3A1 (gene 1281)
Experiment: BSK_hDFCGF_CollagenIII: BioMAP Diversity Plus: hDFCGF Assay for Collagen III Biomarker Activity (AID 2283056)
Details: primary human foreskin fibroblasts; actives raise or lower the signal
The source made the active and inactive calls. Rule for the calls: active = hit-call score of the fitted dose curve at least 0.9, where 1 is the maximum; inactive = score below 0.9.
Respond using exactly one of the listed classes: class 1 (active), class 0 (inactive)

Answered examples (3):
QUERY: Test call for this compound, please: Nc1nc(=S)c2[nH]cnc2[nH]1
RESULT: class 1

QUERY: Please answer likewise for NC=O
RESULT: class 0

QUERY: And then CCC(C)N(C)C(=O)c1cc2ccccc2c(-c2ccccc2Cl)n1 (centres undefined) , what is it?
RESULT: class 0

Now look at this entry.
QUERY: Given O=C(O)CC(O)(CC(=O)O)C(=O)O , state the outcome it received in this test.
RESULT: class 0

###

Read-out: Transforming growth factor beta 1 (TGFb1), TGFB1 (gene 7040)
Test: BSK_KF3CT_TGFb1: BioMAP Diversity Plus: KF3CT Assay for Transforming growth factor beta 1 (TGFb1) Biomarker Activity (AID 2283072)
Settings: primary human keratinocytes with fibroblasts; actives raise or lower the signal
Active and inactive are the calls of the source. How the source made its calls: active means hit-call score of the fitted dose curve at least 0.9, where 1 is the maximum; inactive means score below 0.9.
Outcomes you can answer with include only these: active, inactive

QUERY: Any idea what this test logged for COC(=O)CCC(=O)OC ?
RESULT: inactive

QUERY: Also CC(C)c1cccc(C(C)C)c1NC(=O)NS(=O)(=O)c1cc(C(C)(C)O)co1 , if possible.
RESULT: inactive

QUERY: Input CCOCCOCCO
RESULT: inactive

QUERY: Entry CCCCCCCC(=O)OC please
RESULT: inactive

QUERY: Item: Nc1nc(=S)c2[nH]cnc2[nH]1
RESULT: inactive

QUERY: What do we get for C/C=C/C=C/C(=O)O ?
RESULT: inactive

More entries:
QUERY: Lab log entry: O=[Si]=O — outcome as called in the assay?
RESULT: inactive

QUERY: // repeat for C=CCc1ccc(OC)c(OC)c1 and report
RESULT: inactive

QUERY: // query: CCCCCCC(C=O)=Cc1ccccc1
RESULT: inactive

QUERY: Request: CN(C)C(=O)NC1(c2ccccc2)CCN(CCC[C@]2(c3ccc(Cl)c(Cl)c3)CCCN(C(=O)c3ccccc3)C2)CC1
RESULT: inactive
